// reported LD50 for each item listed
run.description: acute toxicity by intraperitoneal administration
conditions: mouse, in vivo, ip; mice, i.p., estimated lethal dose (method of Miller); read-out: Acute toxicity LD 50
test.readout: LD50 (mg/kg)

>>> observed_value("COc1cc(N)c(Br)cc1C(=O)N[C@@H]1C[C@H]2CC[C@@H](C1)N2Cc1cccc(C(F)(F)F)c1 [Compound 21]")
85
>>> observed_value("COc1c(C(=O)N[C@@H]2C[C@H]3CC[C@@H](C2)N3Cc2ccccc2)cc(Br)c(N)c1Br [Compound 74]")
250
>>> observed_value("COc1cc(N)c(Br)cc1C(=O)N[C@@H]1C[C@H]2CC[C@@H](C1)N2Cc1ccc(F)cc1 [Compound 19]")
90
>>> observed_value("COc1cc(N)c(Br)cc1C(=O)N[C@@H]1C[C@H]2CC[C@@H](C1)N2Cc1ccccc1 [Compound 16]")
240
>>> observed_value("COc1cc(N)c(Br)cc1C(=O)N[C@@H]1C[C@H]2CC[C@@H](C1)N2Cc1ccc(Cl)cc1 [Compound 22]")
140
>>> observed_value("COc1cc(N)c(Cl)cc1C(=O)N[C@@H]1C[C@H]2CC[C@@H](C1)N2Cc1cccs1 [Compound 73]")
170
>>> observed_value("COc1cc(NC(=O)C(F)(F)F)c(Br)cc1C(=O)N[C@@H]1C[C@H]2CC[C@@H](C1)N2Cc1ccccc1 [Compound 41]")
225
